# run-description: Cytotoxicity in mock-infected MT-4 cells (MTT)
# Assay type: cell-based
# condition-notes: human, mock-infected MT-4 cells
Each record is given met if its reported CC50 is strictly below 60 µM. Records at or above 60 µM are given not met.

Study these solved cases before continuing.
- compound: "CCCC(C(=O)O)c1c(C)nc2cc(C(C)(C)C)nn2c1-c1ccc2c(c1)CCCO2 (centres unmarked)"
  class-name: "not met"
- compound: "CCCC(C(=O)O)c1c(C)nc2cc(C(C)(C)C)nn2c1-c1ccc(CC)cc1 (centres unmarked)"
  class-name: "not met"
- compound: "CCCC(C(=O)O)c1c(C)nc2cc(C(C)(C)C)nn2c1-c1ccc2cc[nH]c2c1 (centres unmarked)"
  class-name: "met"
- compound: "CCCC(C(=O)O)c1c(C)nc2cc(-c3ccco3)nn2c1-c1ccc(C)cc1 (centres unmarked)"
  class-name: "not met"
- compound: "CCCC(C(=O)O)c1c(C)nc2cc(C(C)(C)C)nn2c1-c1ccc(Cl)cc1 (centres unmarked)"
  class-name: "met"
- compound: "Cc1ccc(-c2c(C(CCCC(F)(F)F)C(=O)O)c(C)nc3cc(C(C)(C)C)nn23)cc1 (centres unmarked)"
  class-name: "met"
- compound: "CCCC(C(=O)O)c1c(C)nc2c(Cl)c(C(C)(C)C)nn2c1-c1ccc(C)cc1 (centres unmarked)"
  class-name: "met"

--- query ---
Hello, I'm reviewing records and need to know if CC50 of CCCC(C(=O)O)c1c(C)nc2c(-c3ccccc3)c(C(C)(C)C)nn2c1-c1ccc(C)cc1 (centres unmarked) is below 60 µM. Could you check?
met

###

# System: HIV
# run-description: microbe, parasite or virus in culture
# Format: cell-based
# condition-notes: Human immunodeficiency virus 1, MT4; 50% protection of HIV-infected MT-4 cells; read-out: EC50
Each record is given class 1 if its reported EC50 is strictly below 6 µM. Records at or above 6 µM are given class 0.

Study these solved cases before continuing.
- molecule: "CCCC(C(=O)O)c1c(C)nc2c(-c3ccccc3)c(C(C)(C)C)nn2c1-c1ccc(C)cc1 (stereo not drawn)"
  class-name: "class 0"
- molecule: "CCCC(C(=O)O)c1c(C)nc2c(Cl)c(C(C)(C)C)nn2c1-c1ccc(C)cc1 (stereo not drawn)"
  class-name: "class 1"
- molecule: "CCCC(C(=O)O)c1c(C)nc2cc(C(C)(C)C)nn2c1-c1ccc(OC)cc1F (stereo not drawn)"
  class-name: "class 0"
- molecule: "CCCc1cc2nc(C)c(C(CCC)C(=O)O)c(-c3ccc(C)cc3)n2n1 (stereo not drawn)"
  class-name: "class 0"
- molecule: "CCCC(C(=O)O)c1c(C)nc2cc(C(C)(C)C)nn2c1-c1ccc(C)cc1F (stereo not drawn)"
  class-name: "class 1"
- molecule: "CCCC(C(=O)O)c1c(C)nc2cc(C(C)(C)C)nn2c1-c1ccc(C)cc1Cl (stereo not drawn)"
  class-name: "class 0"

Hello, I'm reviewing records and need to know if EC50 of CCCC(C(=O)O)c1c(C)nc2c(nc(C)n2C)c1-c1ccc(C)cc1 (stereo not drawn) is below 6 µM. Could you check?
class 0

Hello, I'm reviewing records and need to know if EC50 of CCCC(C(=O)O)c1c(C)nc2cc(C(C)(C)C)nn2c1-c1ccc(Cl)cc1F (stereo not drawn) is below 6 µM. Could you check?
class 1

Hello, I'm reviewing records and need to know if EC50 of CCCC(C(=O)O)c1c(C)nc2cc(C(C)(C)C)nn2c1-c1ccc(F)cc1F (stereo not drawn) is below 6 µM. Could you check?
class 0

###

# run-description: Cytotoxicity in mock-infected MT-4 cells (MTT)
# Assay type: cell-based
# condition-notes: human, mock-infected MT-4 cells
readout: CC50 (µM)
Field: numeric (µM). Do not append units.

# example entries with known answers
- compound: "CCCC(C(=O)O)c1c(C)nc2cc(C(C)(C)C)nn2c1-c1ccc(C)cc1Cl (stereo not shown)"
  readout-unit: "µM"
  CC50: 60.5
- compound: "CCCC(C(=O)O)c1c(C)nc2cc(C(C)(C)C)nn2c1-c1ccc(C)cc1C (stereo not shown)"
  readout-unit: "µM"
  CC50: 69
- compound: "CCC(C)C(C(=O)O)c1c(C)nc2cc(C(C)(C)C)nn2c1-c1ccc(C)cc1 (stereo not shown)"
  readout-unit: "µM"
  CC50: 77
- compound: "CCCC(C(=O)O)c1c(C)nc2cc(C(C)(C)C)nn2c1-c1ccc(OC)cc1F (stereo not shown)"
  readout-unit: "µM"
  CC50: 115

Then this compound:
Requested field: CC50. Item: CCCC(C(=O)O)c1c(C)nc2c(C)c(C(C)(C)C)nn2c1-c1ccc(C)cc1 (stereo not shown)
34

###

# System: HIV
# run-description: microbe, parasite or virus in culture
# Format: cell-based
# condition-notes: Human immunodeficiency virus 1, MT4; 50% protection of HIV-infected MT-4 cells; read-out: EC50
Each record is given Satisfied if its reported EC50 is strictly below 30 µM. Records at or above 30 µM are given Not satisfied.

- compound: "CCCC(C(=O)O)c1c(C)nc2cc(C(C)(C)C)nn2c1-c1ccccc1 (stereo not shown)"
  target-system: "HIV"
  class-name: "Satisfied"
- compound: "CCCC(C(=O)O)c1c(C)nc2cc(C(C)(C)C)nn2c1-c1ccc(CC)cc1 (stereo not shown)"
  target-system: "HIV"
  class-name: "Satisfied"

Hello, I'm reviewing records and need to know if EC50 of CCCC(C(=O)O)c1c(C)nc2cc(C(C)(C)C)nn2c1-c1ccc(C)c(C)c1 (stereo not shown) is below 30 µM. Could you check?
Not satisfied

Hello, I'm reviewing records and need to know if EC50 of CCCC(C(=O)O)c1c(C)nc2c(Br)c(C(C)(C)C)nn2c1-c1ccc(C)cc1 (stereo not shown) is below 30 µM. Could you check?
Satisfied

Hello, I'm reviewing records and need to know if EC50 of CCCC(C(=O)O)c1c(C)nc2c(C)c(C(C)(C)C)nn2c1-c1ccc(C)cc1 (stereo not shown) is below 30 µM. Could you check?
Satisfied

Hello, I'm reviewing records and need to know if EC50 of COCCC(C(=O)O)c1c(C)nc2cc(C(C)(C)C)nn2c1-c1ccc(C)cc1 (stereo not shown) is below 30 µM. Could you check?
Not satisfied

Hello, I'm reviewing records and need to know if EC50 of CCCC(C(=O)O)c1c(C)nc2cc(C(C)(C)C)nn2c1-c1ccc2c(c1)CCCO2 (stereo not shown) is below 30 µM. Could you check?
Satisfied

Hello, I'm reviewing records and need to know if EC50 of CCCC(C(=O)O)c1c(C)nc2cc(C(C)(C)C)nn2c1-c1ccc2c(c1)OCCCO2 (stereo not shown) is below 30 µM. Could you check?
Satisfied

Hello, I'm reviewing records and need to know if EC50 of CCCC(C(=O)O)c1c(C)nc2ccnn2c1-c1ccc(C)cc1 (stereo not shown) is below 30 µM. Could you check?
Not satisfied

Hello, I'm reviewing records and need to know if EC50 of CCCC(C(=O)O)c1c(C)nc2cc(C(C)(C)C)nn2c1-c1ccc(C(F)(F)F)cc1 (stereo not shown) is below 30 µM. Could you check?
Satisfied

Hello, I'm reviewing records and need to know if EC50 of Cc1ccc(-c2c(C(CCCC(F)(F)F)C(=O)O)c(C)nc3cc(C(C)(C)C)nn23)cc1 (stereo not shown) is below 30 µM. Could you check?
Satisfied

Hello, I'm reviewing records and need to know if EC50 of CCCC(C(=O)O)c1c(C)nc2cc(C(C)(C)C)nn2c1-c1ccc2occc2c1 (stereo not shown) is below 30 µM. Could you check?
Satisfied

###

Recorded CC50 values for a group of compounds are listed next.
# run-description: Cytotoxicity in mock-infected MT-4 cells (MTT)
# Type: cell-based
# condition-notes: human, mock-infected MT-4 cells
Field: numeric (µM). Do not append units.

- compound: "CCCc1cc2nc(C)c(C(CCC)C(=O)O)c(-c3ccc(C)cc3)n2n1 (centres unmarked)"
  CC50 / µM: 203

Requested field: CC50. Item: CCCC(C(=O)O)c1c(C)nc2cc(C(C)(C)C)nn2c1-c1ccc2c(c1)CCO2 (centres unmarked)
101

Requested field: CC50. Item: CCCC(C(=O)O)c1c(C)nc2cc(C(C)(C)C)nn2c1-c1ccc(C)cc1N (centres unmarked)
119

Requested field: CC50. Item: CCCC(C(=O)O)c1c(C)nc2cc(C(C)(C)C)nn2c1-c1ccc2occc2c1 (centres unmarked)
99

Requested field: CC50. Item: CCCC(C(=O)O)c1c(C)nc2cc(C(C)(C)C)nn2c1-c1ccc(C(C)C)cc1 (centres unmarked)
139

Requested field: CC50. Item: CCCC(C(=O)O)c1c(C)nc2cc(C(C)(C)C)nn2c1-c1ccc(F)cc1F (centres unmarked)
85.5
